Origin of measurements: PubChem BioAssay

Test: A549 lung cancer cell viability effects, profiling panel, resazurin fluorescence, 24 h, PK04 Diversity Set (AID 1171); further: test concentration not given here
Conditions: higher = more signal, called active from +8 up or from −8 down
observedProperty: z-score
Please give only the number in your answer, with no unit.

For orientation, consider the following solved cases.
CC1(C)C(=O)C(c2ccccc2)=C2CN3C(=O)N(CCc4ccccc4)C(=O)C3(Cc3ccc(F)cc3)C=C21 (configuration not stated) | -0.745
CCN(CC)c1ccc(N2CC=CC34O[C@@H]5C=CCCOC(=O)C5[C@H]3C(=O)N(CCO)[C@@H]4C2=O)cc1 (some centres not stated) | -0.0198
COc1ccc(NC(=O)O[C@H]2[C@@H]3OC(=O)[C@H](Cc4cccc(Br)c4)C/C=C/C[C@@H](Cc4cccc(Br)c4)C(=O)O[C@H]3[C@@H](OC)O[C@@H]2CO)cc1 | -0.981
COCCOC(=O)N1C(=O)[C@@]2(c3ccccc31)[C@H](c1ccccc1OCCO)N1[C@H](c3ccccc3)[C@H](c3ccccc3)OC(=O)[C@H]1[C@@H]2C(N)=O | -1.78
COc1ccc(C#Cc2ccc3c(c2)[C@]2(C(=O)N3)[C@H](c3ccc(OCCO)cc3)N3[C@H](c4ccccc4)[C@H](c4ccccc4)OC(=O)[C@H]3[C@@H]2C(=O)N2CCc3cc(OC)c(OC)cc3C2)cc1 | -0.0906
C=C(C)[C@@H]1CC=C(C(O)C2C=CC3C(=O)N(c4ccccc4)C(=O)C3N2Nc2ccc(C#N)cc2)CC1 (some centres not stated) | -0.31

// query Look up z-score for this compound: O=C1OCCC=C[C@H]2OC34C=CCN(c5ccc(Cl)cc5)C(=O)[C@H]3N(CCCCCCO)C(=O)[C@@H]4C12 (some centres not stated)
// result 0.97

###

Quick list: composite z-score per entry.
Target: Concanavalin-A (Canavalia ensiformis)
Experiment: ConA small-molecule binders, primary screen, artefact control for SMM control protein annotation, biochemical, small-molecule microarray, Alexa647 label, 635 nm (AID 1127);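 further: z combines 667 nm emission intensity with signal-to-noise across three replicate slides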
Settings: ConA-A647 binding fluorescence, higher = more signal
Please give only the number in your answer, with no unit.

For orientation, consider the following solved cases.
Cc1ccc(N2C(=O)c3ccccc3[C@](C)(C(=O)NCc3ccccc3)[C@@H]2c2ccc(CO)cc2)nc1 | 0.0943
CN1C(=O)C2C=CC(C(O)c3ccc(F)cc3)N(NC(=O)OC(C)(C)C)C2C1=O (stereo not drawn) | 0.923
O=C(N1CCOCC1)[C@@]1(CCS(=O)(=O)c2ccccc2)N=C(c2ccc(OCCCO)cc2)O[C@H]1c1ccccc1 | 1.2
O=C1N[C@@H](Cc2ccccc2)C(=O)N2[C@@H]1C[C@@H](C(=O)O)[C@H]2c1ccc(O)cc1 | 1.01
COc1ccc(C(O)C2C=CC3C(=O)N(c4ccccc4)C(=O)C3N2Nc2ccc(C(C)C)cc2)c2ccccc12 (stereo not drawn) | 1.12

// query Look up composite z-score for this molecule: CCOC(=O)C1=CCC(c2ccco2)N(S(=O)(=O)c2ccc(C)cc2)C1 (stereo not drawn)
// result 0.956

// query Look up composite z-score for this molecule: [N-]=[N+]=Nc1ccccc1C[C@]1(C(=O)O)N=C(c2ccc(OCCCO)cc2)O[C@H]1c1ccccc1
// result 0.552

// query Look up composite z-score for this molecule: C=CCNC(=O)[C@H]1[C@@H]2C(=O)O[C@@H](c3ccccc3)[C@@H](c3ccccc3)N2[C@@H](c2ccc(O)cc2)[C@]12C(=O)N(C(=O)OCCOC)c1ccc(C#CCC(C(=O)OC)C(=O)OC)cc12
// result 0.96

###

Biological target: NADPH oxidase 4 (Homo sapiens)
Assay: NOX4-dependent H2O2 signal modulators, primary screen, NOX inhibitor project, cell-based, HEK293-NOX4, tetracycline-induced, Amplex Red fluorescence (AID 1160)
Conditions: 45 min, higher = more signal, called active from +8 up or from −8 down
Quick list: z-score per entry.
Please give only the number in your answer, with no unit.

[N-]=[N+]=Nc1ccccc1C[C@]1(C(=O)O)N=C(c2ccc(OCCCO)cc2)O[C@H]1c1ccccc1 | 0.818
CCCNC(=O)[C@@]1(Sc2ccc(C)cc2)CC(=O)N(C(C)C)[C@@H]1c1ccc(CO)cc1I | -2.43
CC1(C)C(=O)C(c2ccccc2)=C2CN3C(=O)N(CCc4ccccc4)C(=O)C3(Cc3ccc(C(F)(F)F)cc3)C=C21 (stereo not drawn) | -1.68

// query Look up z-score for this compound: CCOC(=O)C=Cc1ccccc1O
// result -2.24

// query Look up z-score for this compound: COc1ccc(C(=O)Nc2cccc(CN3C(=O)[C@@]4(O[C@@H](CC(=O)N(CCO)Cc5ccccc5)[C@H]([Si](C)(C)c5ccc(OC)cc5)[C@H]4C)c4ccccc43)c2)cc1
// result 0.56

// query Look up z-score for this compound: CC(C)(C)OC(=O)CC[C@]1(C(=O)N2CCCCC2)COC(c2ccc(OCCCO)cc2)=N1
// result 0.0723

// query Look up z-score for this compound: C=CCC(OC(C)=O)[C@@H]1[C@@H](N(Cc2ccc(-c3ccccc3)cc2)C(=O)c2ccc(C)cc2)c2cc(OCCCO)ccc2N1C(=O)Cc1ccc2ccccc2c1 (stereo partly drawn)
// result 0.934

// query Look up z-score for this compound: COCC(=C=CC[C@@H](O)c1ccc(OCCO)cc1)CCO
// result -0.406

###

Test system: Neuregulin-1 EGF-like domain
Assay: binders of neuregulin-1 EGF-like domain, primary screen, biochemical, small-molecule microarray, 635 nm fluorescence (AID 1081);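 further: binding of the protein to compounds printed on small-molecule microarray slides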
Details: small-molecule microarray binding, higher = more signal
observedProperty: composite z-score
Please give only the number in your answer, with no unit.

[N-]=[N+]=NCc1ccccc1[C@@H]1OC(c2ccc(OCCCO)cc2)=N[C@]1(Cc1ccccc1N=[N+]=[N-])C(=O)NCCN1CCOCC1 | 1.25

// query Look up composite z-score for this molecule: COC(=O)[C@@]1(Cc2ccc(F)cc2)[C@H]2c3cc(C(=O)N(C)C)n(Cc4ccc(O)c(OC)c4)c3C[C@H]2CN1C(=O)c1ccccc1
// result 0.786

// query Look up composite z-score for this molecule: [N-]=[N+]=NCc1ccccc1[C@H]1OC(c2ccc(OCCCO)cc2)=N[C@@]1(CCS(=O)(=O)c1ccccc1)C(=O)NCc1ccccc1
// result 1.24

// query Look up composite z-score for this molecule: Cc1cccc([C@H]2C[C@H]3C(I)=C[C@@H]2C(=O)[C@]32CO2)c1
// result -0.38

###

Assay: splicing luciferase reporter signal modulators, primary screen, spliceosome inhibition project, cell-based, HEK293, splice +/- reporter (AID 1101);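 further: HEK293 cells carrying a splicing-competent luciferase reporter gene; test concentration not given here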
Settings: luminescence, 24 h, higher = more signal, called active from +8 up or from −8 down
Threshold rule: z-score greater than or equal to -0.7 is fulfilled; below that, not fulfilled.

Before answering, review these 2 worked examples.
C=C(C)C1CCC(C(O)C2C=CC3C(=O)N(C)C(=O)C3N2Nc2cc(OC)c(OC)c(OC)c2)CC1 (configuration not stated) | fulfilled
Cc1cccc([C@H]2C[C@H]3C(Br)=C[C@@H]2C(=O)[C@]32CO2)c1 | fulfilled

// query Reported z-score reaches at least -0.7 for CC(C)C[C@@H]1NC(=O)[C@@]23C(=O)N[C@@H](Cc4ccccc4)C2[C@H](C)[C@@]2(C)O[C@H]2C3/C=C/C/C=C\CNC(=O)[C@@H](C)NC1=O (some centres not stated) ?
// result not fulfilled

// query Reported z-score reaches at least -0.7 for CN(C)C(=O)[C@@]1(Cc2ccccc2)COC(c2ccc(OCCCO)cc2)=N1 ?
// result not fulfilled

// query Reported z-score reaches at least -0.7 for C=CCC(OC(C)=O)[C@@H]1[C@@H](N(Cc2ccc(-c3cccc(C(F)(F)F)c3)o2)C(=O)c2ccc(C)cc2)c2cc(OCCCO)ccc2N1C(=O)Cc1ccc(OC)cc1 (some centres not stated) ?
// result fulfilled

// query Reported z-score reaches at least -0.7 for COc1ccc(C#Cc2ccc3c(c2)[C@]2(C(=O)N3)[C@H](C(=O)N3CCCCCCC3)[C@H]3C(=O)O[C@H](c4ccccc4)[C@H](c4ccccc4)N3[C@@H]2c2ccc(O)cc2)cc1 ?
// result fulfilled

###

Target: Streptavidin (Streptomyces avidinii)
Test: streptavidin binders on small-molecule microarray, primary screen, artefact control for SMM compound annotation, biophysical, 635/667 nm fluorescence (AID 1147);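 further: signal reflects streptavidin binding to arrayed compounds as a control protein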
Conditions: streptavidin binding, higher = more signal
observedProperty: composite z-score
Please give only the number in your answer, with no unit.

// query Look up composite z-score for this compound: COC(=O)C1=CC(CCCO)=CC(C)N(Cc2cccc(OC(F)(F)F)c2)C=C1C(=O)OC (stereo not drawn)
// result 0.747

// query Look up composite z-score for this compound: CN(C)CCCNC(=O)[C@@H]1c2ccccc2C(=O)N(C2CCCCC2)[C@H]1c1ccc(CO)cc1
// result 0.139

// query Look up composite z-score for this compound: C=C(/C(=C/C[C@@H](OC(C)=O)c1ccc(OCCO)cc1)c1cc(C(=O)OC)ccc1OC)C(C)C
// result -0.124

// query Look up composite z-score for this compound: Cc1ccc(F)cc1S(=O)(=O)N[C@@H]1CCN(Cc2cccc3[nH]ccc23)C1
// result -0.0164

// query Look up composite z-score for this compound: CC1(C)C(=O)C(c2ccccc2)=C2CN3C(=O)N(CCc4ccccc4)C(=O)C3(Cc3ccc(C(F)(F)F)cc3)C=C21 (stereo not drawn)
// result 1.19

// query Look up composite z-score for this compound: COC(=O)[C@@]1(Cc2ccccc2CN=[N+]=[N-])N=C(c2ccc(OCCCO)cc2)O[C@H]1c1ccccc1CN=[N+]=[N-]
// result -0.754

// query Look up composite z-score for this compound: CCN(CC)c1ccc(N2CC=CC34O[C@@H]5C=CCCOC(=O)C5[C@H]3C(=O)N(CCO)[C@@H]4C2=O)cc1 (stereo partly drawn)
// result -1.02

// query Look up composite z-score for this compound: [N-]=[N+]=NCc1ccccc1[C@@H]1OC(c2ccc(OCCCO)cc2)=N[C@]1(Cc1ccccc1N=[N+]=[N-])C(=O)N1CCCCC1
// result 1.58
